Ref: patent US20240166599A1

- assay_procedure: Liver microsomes stability, human
- settings: human, microsomes
measured_endpoint: half-life at 2 μM (min)
Supply the numeric figure in min, leaving out any unit text.

[Q] Return reported half-life at 2 μM; argument: [2H]c1[nH]c2c([2H])c([2H])c([2H])c([2H])c2c1CCN(C)C
[A] 8.52

[Q] [2H]C([2H])([2H])Oc1ccc2[nH]cc(C([2H])([2H])C([2H])([2H])N(C([2H])([2H])[2H])C([2H])([2H])[2H])c2c1 , same question.
[A] 2.3

[Q] Could you do the same for [2H]C([2H])([2H])N(C([2H])([2H])[2H])C([2H])([2H])C([2H])([2H])c1c[nH]c2ccccc12 , please?
[A] 7.73
